assayed target: Neuronal acetylcholine receptor subunit alpha-7 (Homo sapiens, UniProt P36544)
Sequence (P36544 whole entry): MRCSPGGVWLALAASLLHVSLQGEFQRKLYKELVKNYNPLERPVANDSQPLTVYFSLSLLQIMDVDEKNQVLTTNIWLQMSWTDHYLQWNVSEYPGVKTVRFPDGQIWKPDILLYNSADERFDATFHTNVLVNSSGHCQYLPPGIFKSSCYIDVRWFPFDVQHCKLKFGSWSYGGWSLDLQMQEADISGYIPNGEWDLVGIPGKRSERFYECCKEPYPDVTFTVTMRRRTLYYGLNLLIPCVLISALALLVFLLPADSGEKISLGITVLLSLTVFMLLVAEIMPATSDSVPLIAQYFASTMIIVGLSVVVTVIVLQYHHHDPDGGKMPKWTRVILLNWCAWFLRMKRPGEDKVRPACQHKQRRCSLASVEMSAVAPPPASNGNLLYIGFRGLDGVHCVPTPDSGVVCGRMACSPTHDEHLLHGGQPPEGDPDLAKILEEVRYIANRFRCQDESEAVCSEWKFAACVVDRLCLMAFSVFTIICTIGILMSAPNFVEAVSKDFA
protocol description: Partial agonist activity at human alpha7 nAChR expressed in Xenopus laevis oocytes assessed as increase in peak current amplitude at 30 uM at -60 mV holding potential treated for 12 secs followed by compound washout for 181 secs by whole cell two electrode voltage-clamp assay relative to ACh
Type: cell-based
Consider the following molecules; for each one, report its fold change (FC).

IN: Provide one value: measured fold change (FC) of c1cc(-c2noc(CC3CN4CCC3CC4)n2)ccn1 (stereo unspecified)
OUT: 0.553

IN: Provide one value: measured fold change (FC) of Cc1noc(CC2CN3CCC2CC3)n1 (stereo unspecified)
OUT: 0.026

IN: Provide one value: measured fold change (FC) of Ic1cccc(-c2noc(CC3CN4CCC3CC4)n2)c1 (stereo unspecified)
OUT: 1.21

IN: Provide one value: measured fold change (FC) of C[N+]12CCC(CC1)C(Cc1nc(-c3cccc(Br)c3)no1)C2 (stereo unspecified)
OUT: 0.44

IN: Provide one value: measured fold change (FC) of Cc1noc(CC2C[N+]3(C)CCC2CC3)n1 (stereo unspecified)
OUT: 0.003

IN: Provide one value: measured fold change (FC) of C[N+]12CCC(CC1)C(Cc1nc(-c3ccccc3)no1)C2 (stereo unspecified)
OUT: 0.069
